From: patent US20260022343A1

Molecular target: T1, human TNFR2 (human, UniProt P20333 23-257, limits assumed)
T1 sequence (looked up): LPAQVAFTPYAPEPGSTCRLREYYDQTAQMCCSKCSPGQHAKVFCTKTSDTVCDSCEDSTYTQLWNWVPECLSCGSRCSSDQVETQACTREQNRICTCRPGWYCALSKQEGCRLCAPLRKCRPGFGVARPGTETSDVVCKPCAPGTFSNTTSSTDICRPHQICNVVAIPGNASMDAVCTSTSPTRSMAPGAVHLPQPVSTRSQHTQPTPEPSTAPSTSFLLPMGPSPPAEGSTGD
Assay: selection of TNFR2-binding stefin A variants; method not described
assayReadout: binding result

TNFR2-binding stefin A variant CLONE 001 (designed binder, also called clone 1) MIPGGLSEAKPATPEIQEIVDKVKPQLEEKTGETYGKLEAVQYKTQVVGQDQWGNYAGTNYYIKVRAGDNKYMHLKVFKSLPDIPHNHWHEDLVLTGYQVDKNKDDELTGFAAAEQKLISEEDLAAHHHHHH: binds
TNFR2-binding stefin A variant CLONE 026 (designed binder, also called clone 26) MIPRGLSEAKPATPEIQEIVDKVKPQLEEKTGETYGKLEAVQYKTQVLALEIPSAIIYSTNYYIKVRAGDNKYMHLKVFNGPYFWGDQEHWADRVLTGYQVDKNKDDELTGFAAAEQKLISEEDLAAHHHHHH: binds
